Target: human HSL (Homo sapiens)
Construct: generate a full length human HSL ORF with a 3′-His6 tag
Sequence (Q05469 1-1076): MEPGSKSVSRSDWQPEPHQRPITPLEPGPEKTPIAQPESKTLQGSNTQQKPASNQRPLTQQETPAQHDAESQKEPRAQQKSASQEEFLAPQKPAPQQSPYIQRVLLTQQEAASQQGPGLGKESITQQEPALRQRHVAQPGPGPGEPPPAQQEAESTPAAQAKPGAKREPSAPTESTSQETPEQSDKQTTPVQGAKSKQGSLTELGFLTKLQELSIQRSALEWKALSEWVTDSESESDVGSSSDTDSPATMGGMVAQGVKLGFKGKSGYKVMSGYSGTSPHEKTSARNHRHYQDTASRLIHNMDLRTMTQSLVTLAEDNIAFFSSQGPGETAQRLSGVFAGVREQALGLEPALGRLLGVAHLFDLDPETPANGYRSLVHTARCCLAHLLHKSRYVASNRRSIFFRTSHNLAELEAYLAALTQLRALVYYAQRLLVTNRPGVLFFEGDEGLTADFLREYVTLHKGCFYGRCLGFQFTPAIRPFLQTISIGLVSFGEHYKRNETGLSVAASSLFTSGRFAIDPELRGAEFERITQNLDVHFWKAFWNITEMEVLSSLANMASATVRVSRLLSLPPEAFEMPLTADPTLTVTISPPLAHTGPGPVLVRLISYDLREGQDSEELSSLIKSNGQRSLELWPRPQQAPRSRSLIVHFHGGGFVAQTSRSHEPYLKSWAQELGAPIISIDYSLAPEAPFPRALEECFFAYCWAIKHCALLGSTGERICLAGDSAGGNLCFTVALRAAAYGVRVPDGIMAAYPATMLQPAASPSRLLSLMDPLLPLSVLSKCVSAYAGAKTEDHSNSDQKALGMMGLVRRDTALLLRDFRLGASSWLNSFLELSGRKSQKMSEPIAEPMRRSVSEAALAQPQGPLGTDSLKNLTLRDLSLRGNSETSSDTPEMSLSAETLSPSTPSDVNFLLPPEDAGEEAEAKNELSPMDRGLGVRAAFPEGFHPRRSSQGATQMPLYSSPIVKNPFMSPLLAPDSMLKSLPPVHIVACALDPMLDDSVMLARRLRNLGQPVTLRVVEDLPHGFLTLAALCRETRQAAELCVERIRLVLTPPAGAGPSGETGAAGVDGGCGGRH
Assay: Human Hormone-Sensitive Lipase (HSL) enzyme inhibition assay (colorimetric, DMPT substrate)
Conditions: human full length HSL-His6, 2,3-dimercapto-1-propanol tributyrate substrate, 37° C., 20 minutes; read-out: HSL hum IC50
readout.type: IC50 (nM)

Study these solved cases before continuing.
[
  {
    "molecule": "C[C@H](Oc1ccc(N2CC[C@]3(CC[C@@](O)(CN4C(=O)CCC45CC5)CC3)C2=O)cn1)C(F)(F)F [Example 12]",
    "observed": 9.7
  },
  {
    "molecule": "CC(C)Oc1ccc(N2CC[C@]3(CC[C@@](O)(CN4C(=O)CCC4(C)C)CC3)C2=O)cc1 [Example 2]",
    "observed": 12.5
  },
  {
    "molecule": "CC(C)Oc1ccc(N2CC[C@]3(CC[C@@](O)(CN4CC[C@@H](O)C4=O)CC3)C2=O)cc1 [Example 6]",
    "observed": 60
  },
  {
    "molecule": "C[C@@H](Oc1ccc(N2CC[C@]3(CC[C@@](O)(CN4C(=O)CCC45CC5)CC3)C2=O)cc1)C(F)(F)F [Example 11]",
    "observed": 7.1
  },
  {
    "molecule": "CC1(C)CCC(=O)N1C[C@]1(O)CC[C@]2(CCN(c3ccc([C@@H](O)C(F)(F)F)cc3)C2=O)CC1 [Example 9]",
    "observed": 14.6
  }
]

A. O=C1OCC2(CC2)N1C[C@]1(O)CC[C@]2(CCN(c3ccc(OCC(F)(F)F)cc3)C2=O)CC1 [Example 15]
B. CC(C)Oc1ccc(N2CC[C@]3(CC[C@@](O)(CN4CCN(C)C4=O)CC3)C2=O)cc1 [Example 3]
Given the listed records, identify the one among A and B with higher IC50. Reply with the label of the item you choose.
A

P. CC(C)Oc1ccc(N2CC[C@]3(CC[C@@](O)(CN4C(=O)CCC45CC5)CC3)C2=O)cc1 [Example 4]
Q. O=C1OCCN1C[C@]1(O)CC[C@]2(CCN(c3ccc(OCC(F)(F)F)cc3)C2=O)CC1 [Example 16]
Between P and Q , which one has the lower reported IC50 value? Reply with the label of the item you choose.
P

P. CN1CCN(C[C@]2(O)CC[C@]3(CCN(c4ccc([C@@H](O)C(F)(F)F)cc4)C3=O)CC2)C1=O [Example 10]
Q. CC1(C)CCC(=O)N1C[C@]1(O)CC[C@]2(CCN(c3ccc(C(F)(F)F)cc3)C2=O)CC1 [Example 1]
Given the listed records, identify the one among P and Q with higher IC50. Reply with the label of the item you choose.
P
(P: 136 nM, Q: 14.9 nM)

1. CC(C)Oc1ccc(N2CC[C@]3(CC[C@@](O)(CN4CCN(C)C4=O)CC3)C2=O)cn1 [Example 7]
2. CC(C)Oc1ccc(N2CC[C@]3(CC[C@@](O)(CN4CCNC4=O)CC3)C2=O)cn1 [Example 8]
3. O=C1CCC2(CC2)N1C[C@]1(O)CC[C@]2(CCN(c3ccc(OCC(F)(F)F)cc3)C2=O)CC1 [Example 13]
Sort the 3 molecules by IC50; largest first, smallest last. Quick reminder: the answer is the labels in the order asked.
2, 1, 3
(2: 300 nM, 1: 138 nM, 3: 7.5 nM)

a. O=C1CCC2(CC2)N1C[C@]1(O)CC[C@]2(CCN(c3ccc([C@@H](O)C(F)(F)F)cc3)C2=O)CC1 [Example 17]
b. CC(C)Oc1ccc(N2CC[C@]3(CC[C@@](O)(CN4CCOC4=O)CC3)C2=O)cc1 [Example 5]
Between a and b , which one has the lower reported IC50 value? Reply with the label of the item you choose.
b
(b: 5.9 nM, a: 40 nM)
